Origin of measurements: PubChem BioAssay (EPA / NIEHS)

- Read-out: urokinase plasminogen activator (uPA), PLAU (gene 5328)
- Method Description: BSK_KF3CT_uPA: BioMAP Diversity Plus: KF3CT Assay for urokinase plasminogen activator (uPA) Biomarker Activity (AID 2283075)
- Assay Setup: primary human keratinocytes with fibroblasts; actives raise or lower the signal
Activity calls are given as the source filed them. Rule for the calls: active = hit-call score of the fitted dose curve at least 0.9, where 1 is the maximum; inactive = score below 0.9.
Please state which outcome applies, choosing from active, inactive

Nc1cc([N+](=O)[O-])ccc1Cl    inactive

Hey, what did the test say about CC(=O)Nc1ccccc1O ? inactive

Hey, what did the test say about C=C[Si](OCC)(OCC)OCC ? inactive

Hey, what did the test say about NCCNCCN ? inactive

Hey, what did the test say about CCc1c(C)cc(N)c(CC)c1N ? inactive

Hey, what did the test say about O=P(c1ccccc1)(c1ccccc1)c1ccccc1 ? inactive

Hey, what did the test say about CC(C)c1ccc(C(C)C)cc1 ? inactive

Hey, what did the test say about N#Cc1ccc(CC(=NNC(=O)Nc2ccc(OC(F)(F)F)cc2)c2cccc(C(F)(F)F)c2)cc1 ? inactive

---

- Target Or Test System: human Retinoic Acid Receptor gamma (RARg), RARG (gene 5916) (UniProt P13631)
- Sequence (P13631 whole entry, looked up): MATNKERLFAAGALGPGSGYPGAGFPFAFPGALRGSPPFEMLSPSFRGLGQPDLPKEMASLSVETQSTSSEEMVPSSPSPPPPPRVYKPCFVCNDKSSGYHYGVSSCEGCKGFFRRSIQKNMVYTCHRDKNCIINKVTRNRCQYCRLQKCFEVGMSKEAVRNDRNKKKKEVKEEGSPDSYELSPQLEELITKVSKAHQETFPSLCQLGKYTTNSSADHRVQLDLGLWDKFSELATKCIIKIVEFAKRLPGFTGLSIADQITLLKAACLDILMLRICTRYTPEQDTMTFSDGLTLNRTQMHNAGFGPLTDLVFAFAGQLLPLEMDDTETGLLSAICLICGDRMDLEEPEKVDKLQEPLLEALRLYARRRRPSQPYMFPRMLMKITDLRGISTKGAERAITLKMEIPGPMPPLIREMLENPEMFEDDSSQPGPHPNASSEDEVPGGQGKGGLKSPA
- Method Description: ATG_RARg_TRANS: Attagene TRANS-FACTORIAL HepG2 Assay for human Retinoic Acid Receptor gamma (RARg) (AID 2283009)
Records with an inconclusive call do not appear. Calls of active or inactive are those of the source. The calls were made as follows: active = hit-call score of the fitted dose curve at least 0.9, where 1 is the maximum; inconclusive = response in the unintended direction; inactive = score below 0.9.
Experimental Readout: outcome

CC(CN1c2ccccc2Sc2ccccc21)N(C)C (stereo not drawn)    inactive
C=CC[N+](C)(C)CC=C    inactive
COC(C)CCO (stereo not drawn)    inactive

---

- Method Description: BSK_LPS_SRB: Viability Assessment in the BioMAP Diversity Plus: LPS Assay (AID 2283079);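 note: total protein by sulforhodamine B absorbance as a cytotoxicity measure; measured one day after compound addition; fitted in both directions against DMSO so loss or gain of signal counts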
- Assay Setup: primary human HUVEC with PBMC
Calls of active or inactive are those of the source. The calls were made as follows: active = hit-call score of the fitted dose curve at least 0.9, where 1 is the maximum; inactive = score below 0.9.
Please state which outcome applies, choosing from true (1) for active, false (0) for inactive

O=C(O)c1cn(C2CC2)c2cc(N3CCNCC3)c(F)cc2c1=O    false (0)

Hey, what did the test say about CN(CCOc1ccc(CC2SC(=O)NC2=O)cc1)c1ccccn1 (stereo not drawn) ? false (0)

Hey, what did the test say about O=P(c1ccccc1)(c1ccccc1)c1ccccc1 ? false (0)

---

- Target Or Test System: Nuclear receptor subfamily 1 group I member 2 (Homo sapiens)
- Method Description: ATG_PXR_TRANS: Attagene TRANS-FACTORIAL HepG2 Assay for human Pregnane X Receptor (PXR) (AID 2283008)
- Description: ATG_TRANS is a cell-based, multiplexed-readout assay that uses HepG2, a human liver cell line, with measurements taken at 24 hours after chemical dosing in a 24-well plate.ATG_PXR_TRANS is one of 30 assay component(s) measured or calculated from the ATG_TRANS assay. […] This assay endpoint, ATG_PXR_TRANS, was analyzed in the positive analysis fitting direction relative to DMSO as the negative control and baseline of activity. […]
Inconclusive results are not listed. Calls of active or inactive are those of the source. The calls were made as follows: active = hit-call score of the fitted dose curve at least 0.9, where 1 is the maximum; inconclusive = response in the unintended direction; inactive = score below 0.9.
Please state which outcome applies, choosing from active, inactive

Please review the entries below; each comes with its answer.
O=C1CCCCCCCCCCOCCCCO1    inactive
CC(C)(C)NC(N)=O    inactive
ClCCCl    inactive
CC(C)C[C@H]1C(=O)N2CCC[C@H]2[C@]2(O)O[C@](NC(=O)[C@@H]3C=C4c5cccc6[nH]c(Br)c(c56)C[C@H]4N(C)C3)(C(C)C)C(=O)N12    active
CC(C)(C)C(=O)c1ccccc1    inactive
COc1cc2ncnc(Nc3cccc(Cl)c3)c2cc1OC    inactive
COc1ccc(Cl)cc1C    inactive
Cc1cccc(Nc2ccccc2C(=O)O)c1C    inactive

Hey, what did the test say about CC1(C)[C@H]2CC[C@]1(C)[C@H](O)C2 ? inactive

Hey, what did the test say about CC1CCC2CC1C2(C)C (centres undefined) ? inactive

Hey, what did the test say about C=C(C)[C@@H]1CCC2=CC(=O)C[C@@H](C)[C@]2(C)C1 ? inactive

Hey, what did the test say about CCc1ccc(C=O)cc1 ? inactive

Hey, what did the test say about O=C1C(c2[nH]c3ccc(S(=O)(=O)O)cc3c2O)=Nc2ccc(S(=O)(=O)O)cc21 ? inactive

Hey, what did the test say about C=CC(=O)OCCOCCOCC ? active

---

- Read-out: Monokine induced gamma interferon (MIG), CXCL9 (gene 4283)
- Method Description: BSK_CASM3C_MIG: BioMAP Diversity Plus: CASM3C Assay for Monokine induced gamma interferon (MIG) Biomarker Activity (AID 2283048);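 note: MIG protein level measured by ELISA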
- Assay Setup: primary human coronary artery smooth muscle cells; actives raise or lower the signal
Calls of active or inactive are those of the source. How the source made its calls: active means hit-call score of the fitted dose curve at least 0.9, where 1 is the maximum; inactive means score below 0.9.
Experimental Readout: outcome

Known results for compounds:
CC[Si](OC(C)=O)(OC(C)=O)OC(C)=O    inactive
CC1COc2ccccc2N1C(=O)C(Cl)Cl (stereo unspecified)    inactive
CC(C)(COC(=O)c1ccccc1)COC(=O)c1ccccc1    inactive
CC(=O)OCCC(C)CC(C)(C)C (stereo unspecified)    inactive
CC(=O)/C=C/C1=C(C)CCCC1(C)C    inactive

Consider the record given below.
Reported outcome, compound C[C@H]1C[C@@H]2[C@H]([C@@H](O)C[C@@]3(C)[C@H]2CC[C@]3(O)C(=O)CO)[C@@]2(C)C=CC(=O)C=C12 : ____ inactive

---

- Method Description: ATG_CMV_CIS: Attagene CIS-FACTORIAL HepG2 Assay for human CMV (Internal Marker) (AID 2282928);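 note: endpoint acts as a background internal control marker rather than a target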
- Assay Setup: HepG2 CMV promoter reporter, transcription factor profiling; actives raise or lower the signal
Active and inactive are the calls of the source. How the source made its calls: active means hit-call score of the fitted dose curve at least 0.9, where 1 is the maximum; inactive means score below 0.9.
Please state which outcome applies, choosing from active, inactive

Hey, what did the test say about CCOC(=S)SSC(=S)OCC ? inactive

---

- Read-out: Interleukin-8 (IL8), CXCL8 (gene 3576)
- Method Description: BSK_hDFCGF_IL8: BioMAP Diversity Plus: hDFCGF Assay for Interleukin-8 (IL8) Biomarker Activity (AID 2283058)
- Assay Setup: primary human foreskin fibroblasts; actives raise or lower the signal
Activity calls are given as the source filed them. The calls were made as follows: active = hit-call score of the fitted dose curve at least 0.9, where 1 is the maximum; inactive = score below 0.9.
Please state which outcome applies, choosing from active, inactive

Please review the entries below; each comes with its answer.
CCCCC/C=C/C=C/C=O    active
CCCCCCCCCC=O    inactive
C=C(C)C(=O)O[C@H]1C[C@@H]2CC[C@@]1(C)C2(C)C    active
CC1CCC(C(C)CS)CC1S (stereo not drawn)    active
Cc1ccc(O)c(C(C)(C)C)c1    inactive
CC1COc2ccccc2N1C(=O)C(Cl)Cl (stereo not drawn)    inactive

Would you kindly look at the next entry?
Hey, what did the test say about Cc1ccc2n[nH]nc2c1 ? inactive

---

- Method Description: ATG_CMV_CIS: Attagene CIS-FACTORIAL HepG2 Assay for human CMV (Internal Marker) (AID 2282928);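 note: endpoint acts as a background internal control marker rather than a target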
- Assay Setup: HepG2 CMV promoter reporter, transcription factor profiling; actives raise or lower the signal
Activity calls are given as the source filed them. Rule for the calls: active = hit-call score of the fitted dose curve at least 0.9, where 1 is the maximum; inactive = score below 0.9.
Please state which outcome applies, choosing from TRUE for active, FALSE for inactive

Please review the entries below; each comes with its answer.
CCCCCC=CCC(=O)OC    FALSE
O=C(O)c1snc(Cl)c1Cl    FALSE
CCCCCC(CO)CCC (stereo not given)    FALSE
CCC(=O)/C=C/C1C(C)=CCCC1(C)C (stereo not given)    FALSE
CCCCOCCOCCOCCOCCO    FALSE
C=C(C)[C@@H]1CCC2=CC(=O)C[C@@H](C)[C@]2(C)C1    FALSE

Hey, what did the test say about COc1nc(C)nc(N)n1 ? FALSE

Hey, what did the test say about COC(=O)c1ccc(C)cc1 ? FALSE

Hey, what did the test say about O=C1c2ccccc2C(=O)N1SC1CCCCC1 ? FALSE

Hey, what did the test say about O=C(O)CCCCCCCCCCC(=O)O ? FALSE

Hey, what did the test say about Nc1ccc(S(N)(=O)=O)cc1 ? FALSE

Hey, what did the test say about CCn1c2ccccc2c2cc(N)ccc21 ? TRUE

Hey, what did the test say about CC(C)Oc1ccccc1O ? FALSE

Hey, what did the test say about c1ccc2[nH]ccc2c1 ? FALSE

Hey, what did the test say about CC(=O)O[C@H](CC(=O)[O-])C[N+](C)(C)C ? FALSE

---

- Method Description: BSK_SAg_PBMCCytotoxicity: PBMC Cytotoxicity Assessment in the BioMAP Diversity Plus: SAg Assay (AID 2283093);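 note: PBMC viability measured as Alamar Blue reduction fluorescence at 546/580 nm; fitted both ways against DMSO so a hit may be loss or gain of signal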
- Assay Setup: primary human HUVEC with PBMC
Activity calls are given as the source filed them. Rule for the calls: active = hit-call score of the fitted dose curve at least 0.9, where 1 is the maximum; inactive = score below 0.9.
Please state which outcome applies, choosing from true (1) (active), false (0) (inactive)

Please review the entries below; each comes with its answer.
N#Cc1ccc(CC(=NNC(=O)Nc2ccc(OC(F)(F)F)cc2)c2cccc(C(F)(F)F)c2)cc1    false (0)
CC(=O)Nc1ccccc1O    false (0)
O=P(c1ccccc1)(c1ccccc1)c1ccccc1    false (0)
C[C@H]1C[C@@H]2[C@H]([C@@H](O)C[C@@]3(C)[C@H]2CC[C@]3(O)C(=O)CO)[C@@]2(C)C=CC(=O)C=C12    false (0)
CCCCCCCCCCCCCCCCCC(=O)OCC(CC)CCCC (configuration not stated)    false (0)

Hey, what did the test say about CCn1c2ccccc2c2cc(N)ccc21 ? false (0)

Hey, what did the test say about CNC[C@H](O)c1cccc(O)c1 ? false (0)

Hey, what did the test say about OC1OC[C@@H](O)[C@H](O)[C@H]1O (some centres not stated) ? false (0)

Hey, what did the test say about Nc1cc([N+](=O)[O-])ccc1Cl ? false (0)

Hey, what did the test say about CC(=O)OCCC(C)CC(C)(C)C (configuration not stated) ? false (0)

Hey, what did the test say about CC(C)(COC(=O)c1ccccc1)COC(=O)c1ccccc1 ? false (0)

Hey, what did the test say about C=C(C)C(=O)O[C@H]1C[C@@H]2CC[C@@]1(C)C2(C)C ? true (1)

Hey, what did the test say about CCc1c(C)cc(N)c(CC)c1N ? false (0)

Hey, what did the test say about CC1CCC(C(C)CS)CC1S (configuration not stated) ? false (0)

Hey, what did the test say about Cc1ccc(O)c(C(C)(C)C)c1 ? true (1)

Hey, what did the test say about COC(=O)c1ccc(C)cc1 ? false (0)

Hey, what did the test say about CCCCC/C=C/C=C/C=O ? true (1)

Hey, what did the test say about C=C[Si](OCC)(OCC)OCC ? false (0)
